Test system: Escherichia coli
ASSAY REMARKS: Activation of Escherichia coli nitroreductase assessed as specific activity per mg of protein at 100 uM by measuring decrease in substrate concentration by HPLC analysis
Returns one of satisfied or not satisfied; satisfied when Activity is >= 4 µmol/min.

SMILES STRUCTURE | LABEL
NC(=O)c1cc2c(cc1[N+](=O)[O-])[n+]([O-])c1n2CCc2ccccc2-1 | not satisfied
O=[N+]([O-])c1cnc2c(c1)[n+]([O-])c1n2CCc2ccccc2-1 | satisfied
NC(=O)c1cc(N2CC2)c([N+](=O)[O-])cc1[N+](=O)[O-] | not satisfied
O=[N+]([O-])c1ccc2c(c1)[n+]([O-])c1n2CCc2ccccc2-1 | not satisfied

Input line: Say whether "NC(=O)c1cc(N2CCc3ccccc3C2)c([N+](=O)[O-])cc1[N+](=O)[O-]" shows Activity of 4 µmol/min or more.
Output line: satisfied

Input line: Item: "O=[N+]([O-])c1cc(C(F)(F)F)c2c(c1)[n+]([O-])c1n2CCc2c-1cccc2[N+](=O)[O-]"
Output line: not satisfied
